Where these numbers come from: ChEMBL document CHEMBL4513216

Entries and their cytotoxicity at 10 µM values follow.
# assay procedure: Toxicity liver stage against HepG2, at 10uM
# Format: cell-based
# Set-up: test concentration 10 uM, cell line HepG2-A16-CD81EGFP
# conditions used: human, HepG2-A16-CD81EGFP cells; read-out: INHIBITION
Report the value in % with no unit label.

c1ccc(NCc2cn3c(n2)CN(Cc2nccs2)CC3)nc1; 10.4
Cc1csc(C(C)(C)NCc2ncc(-c3ccc(F)cc3)o2)n1; 8.27
O=C1CCN(C(=O)C2(c3ccc(Br)cc3)CC2)CCN1; 1.56
CC(C)Oc1ncccc1CNC(=O)N1CCC(n2cccc2)CC1; 3.48
CNc1cncc(C2CCCN2S(=O)(=O)c2ccccc2)n1 (configuration not stated); -22

Q) I'd like to know its cytotoxicity at 10 µM. The compound in question is `Cc1ccncc1-n1cc(CCO)cn1`
A) -2.51

Q) I'd like to know its cytotoxicity at 10 µM. The compound in question is CCC1CN(CC(=O)NC(C)C)CCO1 (configuration not stated)
A) 2.16

----------
Entries and their cytotoxicity at 10 µM values follow.
# assay procedure: Toxicity liver stage against HepG2, at 10uM
# Assay type: cell-based
# Design: test concentration 10 uM, cell line HepG2-A16-CD81EGFP
# conditions used: human, HepG2-A16-CD81EGFP cells; read-out: INHIBITION
Report the value in % with no unit label.

CC(=O)NCC(=O)Nc1cc(C)n(-c2ccc(Cl)cc2Cl)n1; -140
Cc1nn(CC(=O)NCC2(C(N)=O)CCOCC2)c(C)c1Cl; 2.83
Cc1c(C)n(Cc2ccncc2)c2nc3c(c(N)c12)CCCCC3; 1.26

Q) I'd like to know its cytotoxicity at 10 µM. The compound in question is `CCOc1cc(NC(=O)N(C)Cc2ncnn2C)ccc1C`
A) 13.4

Q) I'd like to know its cytotoxicity at 10 µM. The compound in question is Cc1cc(CNc2ccc(C(=O)N3CCCC(C)C3)cc2C)no1 (configuration not stated)
A) -3.92

Q) I'd like to know its cytotoxicity at 10 µM. The compound in question is `CCCS(=O)(=O)NC1CCN(c2nnc(C)c(C)c2C#N)CC1`
A) 3.28

Q) I'd like to know its cytotoxicity at 10 µM. The compound in question is `CN1CCN(c2ccccc2NC(=O)NCCc2ccc(O)cc2)CC1`
A) -0.37

Q) I'd like to know its cytotoxicity at 10 µM. The compound in question is COc1ncc(CN(C)C(C)c2cccnc2)cn1 (configuration not stated)
A) 13

Q) I'd like to know its cytotoxicity at 10 µM. The compound in question is Cc1nc(CN2CCCC2Cn2cccn2)nc2ccccc12 (configuration not stated)
A) -51.7

----------
# assay procedure: Toxicity liver stage against HepG2, at 10uM
# Format: cell-based
# Parameters: test concentration 10 uM, cell line HepG2-A16-CD81EGFP
# conditions used: human, HepG2-A16-CD81EGFP cells; read-out: INHIBITION
Entries and their cytotoxicity at 10 µM values follow.
Report the value in % with no unit label.

Q) I'd like to know its cytotoxicity at 10 µM. The compound in question is `Nc1cnc(-c2cccc3c2CCNC3)cn1`
A) -12

Q) I'd like to know its cytotoxicity at 10 µM. The compound in question is `COc1cccc2c3c(c(=O)n(C)c12)CCC(C)(C)O3`
A) 0.55

Q) I'd like to know its cytotoxicity at 10 µM. The compound in question is CCN(CC1CN(Cc2ncc[nH]2)CCO1)c1cccnn1 (stereo unspecified)
A) 1.31

Q) I'd like to know its cytotoxicity at 10 µM. The compound in question is COc1ccc(C(C)NCc2c[nH]nc2C)cc1OC (stereo unspecified)
A) -3.75

Q) I'd like to know its cytotoxicity at 10 µM. The compound in question is CC(C)CC(C)(CNC(=O)c1cnccn1)NC(=O)c1cnccn1 (stereo unspecified)
A) -2.71

Q) I'd like to know its cytotoxicity at 10 µM. The compound in question is `Cc1ncc(S(=O)(=O)Nc2ccnn2C(C)C)[nH]1`
A) 9.68

----------
Entries and their cytotoxicity at 10 µM values follow.
# assay procedure: Toxicity liver stage against HepG2, at 10uM
# Assay type: cell-based
# Set-up: test concentration 10 uM, cell line HepG2-A16-CD81EGFP
# conditions used: human, HepG2-A16-CD81EGFP cells; read-out: INHIBITION
Report the value in % with no unit label.

In the examples that follow, each entry is paired with its recorded cytotoxicity at 10 µM.
CCNC(=O)C(C)Oc1ccc(N(C)S(C)(=O)=O)cc1 (stereo unspecified); 1.07
Cn1c(N)nnc1SC1CCCN(c2ccccc2)C1=O (stereo unspecified); 0.296
COC(=O)COn1c(SCC(=O)OC)nc2ccccc2c1=O; -8.38
CC(=O)N1N=C(c2ccccc2)OC1C(=O)NCCOc1ccccc1 (stereo unspecified); -2.86
COc1c(CNC2CCCc3ccccc32)c(C)nn1C (stereo unspecified); -0.808

Moving on to the next compound.
Q) I'd like to know its cytotoxicity at 10 µM. The compound in question is CN(Cc1nnc(-c2ccco2)o1)C1CCCN(c2cccnn2)C1 (stereo unspecified)
A) -7.39

----------
# assay procedure: Toxicity liver stage against HepG2, at 10uM
# Type: cell-based
# Set-up: test concentration 10 uM, cell line HepG2-A16-CD81EGFP
# conditions used: human, HepG2-A16-CD81EGFP cells; read-out: INHIBITION
measured quantity: cytotoxicity at 10 µM (%)
Report the value in % with no unit label.

In the examples that follow, each entry is paired with its recorded cytotoxicity at 10 µM.
O=c1[nH]cnc2c1CCN(S(=O)(=O)c1cccc(OC(F)(F)F)c1)C2; -2.87
Cc1ccc(C(=O)Nc2ccc(N3CCC(O)CC3)c(C#N)c2)s1; -5.71

Q) I'd like to know its cytotoxicity at 10 µM. The compound in question is CCc1nnc(C2Cc3ccccc3CN2Cc2nc(C)no2)o1 (centres undefined)
A) -7.78

Q) I'd like to know its cytotoxicity at 10 µM. The compound in question is `O=C(c1cccc(Cl)c1)N1CC[C@@H](N2CCC(O)CC2)[C@H](O)C1`
A) -1.61

Q) I'd like to know its cytotoxicity at 10 µM. The compound in question is `CCc1nc(CN2CCCN(C(=O)c3cn[nH]c3CC)CC2)cs1`
A) -7.21

Q) I'd like to know its cytotoxicity at 10 µM. The compound in question is O=C(NCC1(CO)CC1)NC(c1nccs1)C1CC1 (centres undefined)
A) 1.23

Q) I'd like to know its cytotoxicity at 10 µM. The compound in question is `Cn1c(=O)[nH]c(=O)n2c(CC(=O)Nc3ccccc3)cnc12`
A) 5.81

Q) I'd like to know its cytotoxicity at 10 µM. The compound in question is COCC(O)CN(C)C(=O)NCc1ccc(S(C)(=O)=O)cc1 (centres undefined)
A) 1.72

Q) I'd like to know its cytotoxicity at 10 µM. The compound in question is Cc1noc(C2CCC3(CCN(C(=O)c4ncccn4)CC3)O2)n1 (centres undefined)
A) 4.09

Q) I'd like to know its cytotoxicity at 10 µM. The compound in question is CN1CC(=O)N(c2ccsc2)CC12CCN(C(=O)N1CCCC1)C2 (centres undefined)
A) -72.6

Q) I'd like to know its cytotoxicity at 10 µM. The compound in question is Fc1ccccc1Cc1noc(CN2CCC(C3CCCCC3)C2)n1 (centres undefined)
A) 0.372

Q) I'd like to know its cytotoxicity at 10 µM. The compound in question is `NCc1cccc(-c2cccnc2C(=O)NCCCN2CCOCC2)c1`
A) -8.77

----------
# assay procedure: Toxicity liver stage against HepG2, at 10uM
# Type: cell-based
# Design: test concentration 10 uM, cell line HepG2-A16-CD81EGFP
# conditions used: human, HepG2-A16-CD81EGFP cells; read-out: INHIBITION
Entries and their cytotoxicity at 10 µM values follow.
Report the value in % with no unit label.

In the examples that follow, each entry is paired with its recorded cytotoxicity at 10 µM.
COCc1noc(CN2CCC3(CC2)[C@H](O)C[C@@H]3OC)n1; 0.0851
CCCN1CCC(NN2CCN(C)CC2)CC1; -2.38
c1ccc(COC[C@@H]2CC[C@H]3[C@H](CCN3c3ncccn3)O2)nc1; -74.6

Moving on to the next compound.
Q) I'd like to know its cytotoxicity at 10 µM. The compound in question is `CC(C)N1CCC(Cc2cncc(-c3cc(F)ccc3C(=O)O)n2)CC1`
A) -8.36

----------
# assay procedure: Toxicity liver stage against HepG2, at 10uM
# Type: cell-based
# Parameters: test concentration 10 uM, cell line HepG2-A16-CD81EGFP
# conditions used: human, HepG2-A16-CD81EGFP cells; read-out: INHIBITION
measured quantity: cytotoxicity at 10 µM (%)
Report the value in % with no unit label.

In the examples that follow, each entry is paired with its recorded cytotoxicity at 10 µM.
Cc1nn2c(N3CCCC(C#N)C3)cc(-c3ccccc3)nc2c1C (stereo not drawn); -0.828
c1ccc(NCc2cn3c(n2)CN(Cc2cccnc2)CC3)nc1; 1.52
CC(C)Oc1ncccc1CNC(=O)N1CCC1c1ccccc1 (stereo not drawn); -4.92

Q) I'd like to know its cytotoxicity at 10 µM. The compound in question is `CN(C)CC(=O)N1CCc2sc(C(=O)N3CCN(C)CC3)cc21`
A) -104

Q) I'd like to know its cytotoxicity at 10 µM. The compound in question is `Clc1cccc(-n2cnnn2)c1N1CCOCC1`
A) 9.43

Q) I'd like to know its cytotoxicity at 10 µM. The compound in question is CN(C)C(=O)c1sc2ncccc2c1C1CNCCO1 (stereo not drawn)
A) 2.35

Q) I'd like to know its cytotoxicity at 10 µM. The compound in question is `Cc1ccc(F)c2c1N(C(=O)Cc1c(C)nn(C)c1C)CCC2`
A) 12.7

Q) I'd like to know its cytotoxicity at 10 µM. The compound in question is `CN(C)CCn1c(=O)oc2ccc(NC(=O)CSc3ccccc3)cc21`
A) -3.51

Q) I'd like to know its cytotoxicity at 10 µM. The compound in question is `c1ccc2c(c1)CCN(c1nc(-c3ccncc3)nc3c1CCNC3)C2`
A) 37.3
